Just for reference, patent US20260062412A1 is where these values come from.

biological target: UniProt Q99640; assay: Test for binding to ATP binding site of MYT1 (Kinase Tracer 178 / Eu-Anti-GST antibody TR-FRET); conditions: ATP binding site of MYT1, 30 minutes at room temperature
Threshold-based label: IC50 under 20 nM gives label 1, IC50 not under 20 nM gives label 0.

Reference set (2 entries):
Nc1c(-c2ccc(F)c3[nH]ncc23)c2cc(C3CC3)c3scnc3c2[nH]c1=O; label 1
Nc1c(-c2ccc(F)c3[nH]ncc23)c2cc(C3CC3)c3c(Cl)cccc3c2[nH]c1=O; label 1

Consider the additional molecule presented here.
Report whether reported IC50 is lower than 20 nM (strictly) for Nc1c(-c2cccc(OC(F)F)c2)c2cc(Cl)ccc2[nH]c1=O label 0

---

Catalogue of IC50 values
target: UniProt Q99640; experiment: Test for binding to ATP binding site of MYT1 (Kinase Tracer 178 / Eu-Anti-GST antibody TR-FRET); details: ATP binding site of MYT1, 30 minutes at room temperature
Please state the figure in nM; there is no need to write the unit.

N#CC1(c2cc3c(-c4ccc(F)c5[nH]ncc45)c(N)c(=O)[nH]c3c3cccnc23)CC1; 8.7
Nc1c(-c2ccc(F)c3[nH]ncc23)c2cc(I)c3cc(Cl)ccc3c2[nH]c1=O; 85
Nc1c(-c2cccc(C(F)F)c2)c2cc(Cl)ccc2[nH]c1=O; 2700

Alright, here's another compound for you.
For reference, reported IC50 for CCOc1cc2c(-c3ccc(F)c4[nH]ncc34)c(N)c(=O)[nH]c2c2cccnc12 stands at 1.6

---

molecular target: MYT1 protein (Homo sapiens (Human)); test: Test for binding to ATP binding site of MYT1 (Kinase Tracer 178 / Eu-Anti-GST antibody TR-FRET); details: ATP binding site of MYT1, 30 minutes at room temperature
ATTRIBUTE MEASURED: IC50

Readout IC50 for Nc1c(-c2ccnc3[nH]ncc23)c2cc(Br)c3ncccc3c2[nH]c1=O , test system MYT1 protein (Homo sapiens (Human)), was 49 nM

Readout IC50 for Cc1nc2c(-c3ccc(F)c4[nH]ncc34)c(N)c(=O)[nH]c2c2cccnc12 , test system MYT1 protein (Homo sapiens (Human)), was 1.1 nM

---

target: MYT1 protein (Homo sapiens (Human), UniProt Q99640); assay: MYT1 kinase activity inhibition test (ELISA, phosphorylation of Y15 of CDK1); type: biochemical; settings: phosphorylation level of Y15 of CDK1 protein caused by MYT1 protein, 60 minutes
Sequence (Q99640 whole entry): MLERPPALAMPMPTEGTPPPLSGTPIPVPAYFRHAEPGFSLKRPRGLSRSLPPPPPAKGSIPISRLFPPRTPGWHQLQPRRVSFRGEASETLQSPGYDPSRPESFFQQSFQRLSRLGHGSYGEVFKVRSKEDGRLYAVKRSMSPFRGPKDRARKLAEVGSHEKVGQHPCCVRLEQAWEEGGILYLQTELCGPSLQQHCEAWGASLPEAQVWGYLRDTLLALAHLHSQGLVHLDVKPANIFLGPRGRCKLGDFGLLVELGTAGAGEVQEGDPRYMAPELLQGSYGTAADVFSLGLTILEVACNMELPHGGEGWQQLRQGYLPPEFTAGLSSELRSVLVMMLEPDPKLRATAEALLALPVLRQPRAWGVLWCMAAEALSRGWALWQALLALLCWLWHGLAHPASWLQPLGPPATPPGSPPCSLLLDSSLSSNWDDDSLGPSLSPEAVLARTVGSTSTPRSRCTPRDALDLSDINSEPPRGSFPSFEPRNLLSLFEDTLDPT
Catalogue of pIC50 values
In simple prose, pIC50 is minus the logarithm base ten of a concentration in moles per litre.

The following compounds have reported results that may help.
Nc1c(-c2ccc(F)c3[nH]ncc23)c2cc(C3CCC(=O)CC3)c3ncccc3c2[nH]c1=O; 7.72
Nc1c(-c2cccc3[nH]ncc23)c2cc(C3CC3)c3ccccc3c2[nH]c1=O; 8.19
Nc1c(-c2cccc3[nH]ncc23)c2cc(C3CC3)c3ccc(F)cc3c2[nH]c1=O; 8.96
Nc1c(-c2ccc(Cl)c3[nH]ncc23)c2cc(C3CC3)c3ccccc3c2[nH]c1=O; 9.12

For reference, reported pIC50 for Nc1c(-c2ccc(Cl)c3[nH]ncc23)c2cc(C3CC3)c3ncccc3c2[nH]c1=O stands at 9.70

For reference, reported pIC50 for Nc1c(-c2ccc(F)c3[nH]ncc23)c2cc(C3CCC4(CC3)OCCO4)c3ncccc3c2[nH]c1=O.O=C(O)C(F)(F)F [Compound C101, 2,2,2-trifluoroacetate] stands at 8.15

---

molecular target: MYT1 protein (Homo sapiens (Human), UniProt Q99640); experiment: Test for binding to ATP binding site of MYT1 (Kinase Tracer 178 / Eu-Anti-GST antibody TR-FRET); details: ATP binding site of MYT1, 30 minutes at room temperature
ATTRIBUTE MEASURED: pIC50
In simple prose, pIC50 is minus the logarithm base ten of a concentration in moles per litre.

For reference, reported pIC50 for Nc1c(-c2ccc(Cl)c3[nH]ncc23)c2ccc(Cl)cc2[nH]c1=O stands at 8.07

For reference, reported pIC50 for Nc1c(-c2ccc(Cl)c3[nH]ncc23)c2cc(O[C@H]3C[C@H](F)C3)c(F)cc2[nH]c1=O stands at 8.42

For reference, reported pIC50 for Cc1cc2c(-c3ccc(F)c4[nH]ncc34)c(N)c(=O)[nH]c2c2ccc(Cl)cc12 stands at 8.07

For reference, reported pIC50 for Nc1c(-c2ccc(F)c3[nH]ncc23)c2cc(NS(=O)(=O)C3CC3)c3cccnc3c2[nH]c1=O stands at 8.51

---

biological target: UniProt:Q99640; assay: MYT1 kinase activity inhibition test (ELISA, phosphorylation of Y15 of CDK1); type: biochemical; conditions: phosphorylation level of Y15 of CDK1 protein caused by MYT1 protein, 60 minutes
Counter-ions that a name gives are not always drawn.
ATTRIBUTE MEASURED: pIC50
In simple prose, pIC50 is minus the logarithm base ten of a concentration in moles per litre.

Nc1c(-c2cccc(F)c2)c2ccc3ccccc3c2[nH]c1=O [Compound B50, hydrochloride]; 6.68
Nc1c(-c2c(F)ccc3[nH]ncc23)c2cc(C3CC3)c3ncccc3c2[nH]c1=O (racemic); 8.21
CC(C)Oc1cc2c(-c3ccc(F)c4[nH]ncc34)c(N)c(=O)[nH]c2c2cccnc12; 9.82

Readout pIC50 for Nc1c(-c2ccc(F)c3[nH]ncc23)c2cc(Cl)c3ccccc3c2[nH]c1=O , test system UniProt:Q99640, was 9.07

Readout pIC50 for CC(C)Oc1cc2c(-c3cc(F)c(F)c4[nH]ncc34)c(N)c(=O)[nH]c2c2cccnc12 , test system UniProt:Q99640, was 10.00

Readout pIC50 for Nc1c(-c2cccc3[nH]ncc23)c2cc(C3CC3)c3cnccc3c2[nH]c1=O [Compound P1] , test system UniProt:Q99640, was 9.66

Readout pIC50 for Nc1c(-c2ccc(Cl)c3[nH]ncc23)c2ccc3ncccc3c2[nH]c1=O , test system UniProt:Q99640, was 9.49

Readout pIC50 for Nc1c(-c2ccc(F)c3[nH]ncc23)c2cc(C3CC3)c3ccccc3c2[nH]c1=O , test system UniProt:Q99640, was 9.60

Readout pIC50 for CC(=O)c1cc2c(-c3ccc(F)c4[nH]ncc34)c(N)c(=O)[nH]c2c2cccnc12 , test system UniProt:Q99640, was 8.15

Readout pIC50 for COc1cc2c(-c3cc(F)c(Cl)c4[nH]ncc34)c(N)c(=O)[nH]c2c2cccnc12 , test system UniProt:Q99640, was 10.04

Readout pIC50 for Nc1c(-c2ccc(F)c3[nH]ncc23)c2cc(C3CCC3)c3ncccc3c2[nH]c1=O , test system UniProt:Q99640, was 8.96

Readout pIC50 for Nc1c(-c2cccc3[nH]ncc23)c2cc(Cl)c3ncccc3c2[nH]c1=O , test system UniProt:Q99640, was 9.52

---

Biological target: MYT1 protein (Homo sapiens (Human))
Test: Test for binding to ATP binding site of MYT1 (Kinase Tracer 178 / Eu-Anti-GST antibody TR-FRET)
Conditions: ATP binding site of MYT1, 30 minutes at room temperature
Procedure: The binding capacity of each compound to the ATP binding site of MYT1 Kinase protein was evaluated. […] Thereafter, fluorescence wavelengths of 665 nm and 615 nm generated by irradiation with excitation light of 340 nm were detected using Envision (manufactured by PerkinElmer). The proportion of Tracer bound to MYT1 protein was calculated for every condition by dividing the intensity at the fluorescence wavelength of 665 nm by the intensity at the fluorescence wavelength of 615 nm.
Where a name gives a salt, the structure may show the parent alone.
ATTRIBUTE MEASURED: log10 IC50 (log10 of the value in nM)
Please interpret these as log10 of IC50 where IC50 is in nM.

Nc1c(-c2ccc(F)c3[nH]ncc23)c2cc(C3CCNCC3)c3ncccc3c2[nH]c1=O [Compound C133, hydrochloride]; 0.23
CCCOc1cc2c(-c3ccc(F)c4[nH]ncc34)c(N)c(=O)[nH]c2c2cccnc12 [Compound C60]; -0.07

For reference, reported log10 IC50 for Nc1c(-c2ccc(Cl)c3[nH]ncc23)c2cc(C3CC3)c3ncccc3c2[nH]c1=O [Compound C143] stands at 0.43

For reference, reported log10 IC50 for N#C[C@H]1C[C@H](Oc2cc3c(-c4ccc(Cl)c5[nH]ncc45)c(N)c(=O)[nH]c3cc2Cl)C1 [Compound A12] stands at 0.41

For reference, reported log10 IC50 for Cc1n[nH]c2cccc(-c3c(N)c(=O)[nH]c4ccc(Cl)cc34)c12 [Compound A62] stands at 3.59

For reference, reported log10 IC50 for Nc1c(-c2cc(F)c(Cl)c3[nH]ncc23)c2cc(C3CC3)c3ncccc3c2[nH]c1=O [Compound C195] stands at 0.36

For reference, reported log10 IC50 for Nc1c(-c2ccc(F)c3[nH]ncc23)c2cc(C3CCC3)c3ncccc3c2[nH]c1=O [Compound C91] stands at 1.00

For reference, reported log10 IC50 for Cc1c(C2CC2)c2ncccc2c2[nH]c(=O)c(N)c(-c3cc(F)c(F)c4[nH]ncc34)c12 [Compound C217] stands at 0.26

For reference, reported log10 IC50 for O=c1[nH]c2c(cc(Br)c3nccnc32)c(-c2ccc(F)c3[nH]ncc23)c1Cl [Compound G2] stands at 2.43

For reference, reported log10 IC50 for Nc1c(-c2ccc(Cl)c3[nH]ncc23)c2cc(C3CC3)c3ccccc3c2[nH]c1=O [Compound B37] stands at 0.78
